Target: T1, human MAdCAM protein (human, UniProt Q13477 19-317, limits assumed)
T1 construct: also called soluble monomeric human MAdCAM; recombinant human MAdCAM
T1 sequence (looked up): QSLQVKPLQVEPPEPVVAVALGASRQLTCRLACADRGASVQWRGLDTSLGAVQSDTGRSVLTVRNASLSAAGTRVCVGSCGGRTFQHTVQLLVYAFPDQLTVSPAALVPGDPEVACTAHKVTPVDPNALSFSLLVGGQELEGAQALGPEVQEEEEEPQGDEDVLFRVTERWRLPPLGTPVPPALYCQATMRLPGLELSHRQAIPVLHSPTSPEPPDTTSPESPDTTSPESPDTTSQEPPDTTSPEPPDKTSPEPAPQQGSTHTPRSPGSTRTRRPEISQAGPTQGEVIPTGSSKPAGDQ
Experiment: Octet

{"BINDER": "MAdCAM Antibody Table 2 clone 65 (antibody, V domains shown, IgG format) VH: QVQLVQSGAEVKKPGASVKVSCKASGYTFTSYDINWVRQAPGQGLEWMGWMNPNSGNTGYAQKFQGRVTMTRDTSTSTVYMELSSLRSEDTAVYYCAKDSDYSNLLWDYWGQGTLVTVSS VL: DIQMTQSPSSLSASVGDRVTITCRASQDITNDLGWYQQKPGKAPKLLIYQASSLESGVPSRFSGSGSGTDFTLTISSLQPEDFATYYCQQSYTIPLTFGQGTKVEIK", "binding result": "binds"}
{"BINDER": "MAdCAM Antibody Table 2 clone 84 (antibody, V domains shown, IgG format) VH: QVQLVQSGAEVKKPGASVKVSCKASGGTFSSSAISWVRQAPGQGLEWMGWISAYNGYTNYAQKFQGRVTMTRDTSTSTVYMELSSLRSEDTAVYYCASRVHSGGSYPDDYWGQGTLVTVSS VL: DIQMTQSPSSLSASVGDRVTITCQASEHIYNYLNWYQQKPGKAPKLLIYAASSLQSGVPSRFSGSGSGTDFTLTISSLQPEDFATYYCQQTDSIPITFGQGTKVEIK", "binding result": "binds"}
{"BINDER": "MAdCAM Antibody Table 2 clone 82 (antibody, V domains shown, IgG format) VH: QVQLVQSGAEVKKPGASVKVSCKASGYTFTRHWIHWVRQAPGQGLEWMGWINVKTGGAGYAQKFQGRVTMTRDTSTSTVYMELSSLRSEDTAVYYCARESSGWYGTDVWGQGTTVTVSS VL: DIQMTQSPSSLSASVGDRATITCRASQSISNYLAWYQQKPGKAPKLLIYAASSLQSGVPSRFSGSGSGTDFTLTISSLQPEDFATYYCQQSNSFPLTFGGGTKVEIK", "binding result": "binds"}
